System: Nakaseomyces glabratus
protocol: Antifungal activity against Candida glabrata 337 assessed as reduction in fungal growth incubated for 48 hrs by broth microdilution method
Format: functional
measurementName: MIC (µg/mL)
One number for each entry, in µg/mL.

In the examples that follow, each entry is paired with its recorded MIC.
[
  {
    "compound": "OC(Cn1cncn1)(Cn1cncn1)c1ccc(F)cc1F [FLUCONAZOLE]",
    "MIC / µg/mL": 2
  },
  {
    "compound": "O=C(O)c1ccc(-n2nc(-c3ccccc3O)nc2-c2ccccc2O)cc1 [DEFERASIROX]",
    "MIC / µg/mL": 0.5
  }
]

Form field: reported MIC of C[C@@H]1[C@H](O)[C@@H](C)/C=C/C=C/C=C/C=C/C=C/C=C/C=C/[C@H](O[C@@H]2O[C@H](C)[C@@H](O)[C@H](N)[C@@H]2O)C[C@@H]2O[C@](O)(C[C@@H](O)C[C@@H](O)[C@H](O)CC[C@@H](O)C[C@@H](O)CC(=O)O[C@H]1C)C[C@H](O)[C@H]2C(=O)O [AMPHOTERICIN B]
0.5

---

Assignment: determine reported MIC for the given compounds.
Tested on: Nakaseomyces glabratus
protocol: Antifungal activity against Candida glabrata Y10-15 assessed as reduction in fungal growth incubated for 48 hrs by broth microdilution method
Format: functional
Numbers only, in µg/mL.

Sample answers from the record:
[
  {
    "compoundString": "OC(Cn1cncn1)(Cn1cncn1)c1ccc(F)cc1F",
    "targetSystem": "Nakaseomyces glabratus",
    "MIC, µg/mL": 4
  },
  {
    "compoundString": "C[C@@H]1[C@H](O)[C@@H](C)/C=C/C=C/C=C/C=C/C=C/C=C/C=C/[C@H](O[C@@H]2O[C@H](C)[C@@H](O)[C@H](N)[C@@H]2O)C[C@@H]2O[C@](O)(C[C@@H](O)C[C@@H](O)[C@H](O)CC[C@@H](O)C[C@@H](O)CC(=O)O[C@H]1C)C[C@H](O)[C@H]2C(=O)O",
    "targetSystem": "Nakaseomyces glabratus",
    "MIC, µg/mL": 2
  }
]

Next item in the queue.
# input compound: O=C(O)c1ccc(-n2nc(-c3ccccc3O)nc2-c2ccccc2O)cc1 ; wanted: its MIC
0.5

---

protocol: Hemolytic activity in rabbit Red blood cell at 2 ug/ml relative to control
Assay type: toxicity, cell-based, Oryctolagus cuniculus, Erythrocyte
testConditions: red blood cells, at 2 µg/mL, read-out: Activity
measurementName: hemolysis at 2 ug/ml

Fill in: hemolysis at 2 ug/ml of C[C@@H]1[C@H](O)[C@@H](C)/C=C/C=C/C=C/C=C/C=C/C=C/C=C/[C@H](O[C@@H]2O[C@H](C)[C@@H](O)[C@H](N)[C@@H]2O)C[C@@H]2O[C@](O)(C[C@@H](O)C[C@@H](O)[C@H](O)CC[C@@H](O)C[C@@H](O)CC(=O)O[C@H]1C)C[C@H](O)[C@H]2C(=O)O is ___
> 10%

---

System: Candida parapsilosis
protocol: Antifungal activity against Candida parapsilosis ATCC 22019 assessed as reduction in fungal growth incubated for 72 hrs by broth microdilution method
Format: functional
testConditions: Lodderomyces parapsilosis
measurementName: MIC (µg/mL)
One number for each entry, in µg/mL.

Use these answered entries as a reference point.
[
  {
    "molecule": "CN1CCOC(CNC(=O)c2ccc(-n3nc(-c4ccccc4O)nc3-c3ccccc3O)cc2)C1 (stereo not drawn)",
    "unitsLabel": "µg/mL",
    "MIC": 32
  },
  {
    "molecule": "O=C(NC1CCS(=O)(=O)C1)c1ccc(-n2nc(-c3ccccc3O)nc2-c2ccccc2O)cc1 (stereo not drawn)",
    "unitsLabel": "µg/mL",
    "MIC": 64
  },
  {
    "molecule": "O=C(NCCC1CCOCC1)c1ccc(-n2nc(-c3ccccc3O)nc2-c2ccccc2O)cc1",
    "unitsLabel": "µg/mL",
    "MIC": 32
  }
]

// for each molecule in input: emit MIC
1. C[C@@H]1[C@H](O)[C@@H](C)/C=C/C=C/C=C/C=C/C=C/C=C/C=C/[C@H](O[C@@H]2O[C@H](C)[C@@H](O)[C@H](N)[C@@H]2O)C[C@@H]2O[C@](O)(C[C@@H](O)C[C@@H](O)[C@H](O)CC[C@@H](O)C[C@@H](O)CC(=O)O[C@H]1C)C[C@H](O)[C@H]2C(=O)O
2. O=C(O)c1ccc(-n2nc(-c3ccccc3O)nc2-c2ccccc2O)cc1
3. O=C(NCCN1CCOCC1)c1ccc(-n2nc(-c3ccccc3O)nc2-c2ccccc2O)cc1
4. OC(Cn1cncn1)(Cn1cncn1)c1ccc(F)cc1F
5. CN1CCCC(CNC(=O)c2ccc(-n3nc(-c4ccccc4O)nc3-c3ccccc3O)cc2)C1 (stereo not drawn)

1. 0.5
2. 32
3. 64
4. 1
5. 64

---

protocol: Metabolic stability in mouse liver microsomes assessed as half life
Format: ADME, Microsome
I'd appreciate it if you could supply half-life values for the items below.
Give bare numbers, in h.

[
  {
    "molecule": "O=C(NC1CCS(=O)(=O)C1)c1ccc(-n2nc(-c3ccccc3O)nc2-c2ccccc2O)cc1 (stereo not drawn)",
    "unitsLabel": "h",
    "half-life": 2.13
  }
]

Go through the items and report each one's half-life.
1. Cc1ncc2n1-c1ccc(Cl)cc1C(c1ccccc1F)=NC2 [MIDAZOLAM]
2. O=C(O)c1ccc(-n2nc(-c3ccccc3O)nc2-c2ccccc2O)cc1 [DEFERASIROX]

1. 0.0778
2. 3.9

---

Tested on: Cryptococcus neoformans
protocol: Antifungal activity against Cryptococcus neoformans 444 assessed as reduction in fungal growth incubated for 72 hrs by broth microdilution method
Assay type: functional
What MIC was measured for each of the following?
Numbers only, in µg/mL.

Before answering, review these 3 worked examples.
[
  {
    "molecule": "O=C(NC1CCS(=O)(=O)C1)c1ccc(-n2nc(-c3ccccc3O)nc2-c2ccccc2O)cc1 (centres undefined)",
    "MIC / µg/mL": 1
  },
  {
    "molecule": "O=C(O)c1ccc(-n2nc(-c3ccccc3O)nc2-c2ccccc2O)cc1",
    "MIC / µg/mL": 8
  },
  {
    "molecule": "OC(Cn1cncn1)(Cn1cncn1)c1ccc(F)cc1F",
    "MIC / µg/mL": 16
  }
]

Returns the measured MIC for the input molecule. Input: C[C@@H]1[C@H](O)[C@@H](C)/C=C/C=C/C=C/C=C/C=C/C=C/C=C/[C@H](O[C@@H]2O[C@H](C)[C@@H](O)[C@H](N)[C@@H]2O)C[C@@H]2O[C@](O)(C[C@@H](O)C[C@@H](O)[C@H](O)CC[C@@H](O)C[C@@H](O)CC(=O)O[C@H]1C)C[C@H](O)[C@H]2C(=O)O
2

---

Tested on: Nakaseomyces glabratus
protocol: Antifungal activity against Candida glabrata YC1-34 assessed as reduction in fungal growth incubated for 48 hrs by broth microdilution method
Format: functional
Give measured MIC for each item. Keep answers brief.
One number for each entry, in µg/mL.

Solved cases below.
[
  {
    "compoundString": "C[C@@H]1[C@H](O)[C@@H](C)/C=C/C=C/C=C/C=C/C=C/C=C/C=C/[C@H](O[C@@H]2O[C@H](C)[C@@H](O)[C@H](N)[C@@H]2O)C[C@@H]2O[C@](O)(C[C@@H](O)C[C@@H](O)[C@H](O)CC[C@@H](O)C[C@@H](O)CC(=O)O[C@H]1C)C[C@H](O)[C@H]2C(=O)O",
    "reportedMeasurement": 1
  },
  {
    "compoundString": "O=C(O)c1ccc(-n2nc(-c3ccccc3O)nc2-c2ccccc2O)cc1",
    "reportedMeasurement": 0.25
  }
]

Now for the compound whose MIC we want.
Given the compound OC(Cn1cncn1)(Cn1cncn1)c1ccc(F)cc1F , what is its reported MIC?
2

---

Assign k el to each entry below.
protocol: Metabolic stability in mouse liver microsomes assessed as elimination rate constant
Assay type: ADME, Microsome
Numbers only, in s⁻¹.

A selection of reference data follows.
[
  {
    "compound": "Cc1ncc2n1-c1ccc(Cl)cc1C(c1ccccc1F)=NC2",
    "k el / s⁻¹": 0.00247
  },
  {
    "compound": "O=C(O)c1ccc(-n2nc(-c3ccccc3O)nc2-c2ccccc2O)cc1",
    "k el / s⁻¹": "5e-05"
  }
]

# query: k el of entry O=C(NC1CCS(=O)(=O)C1)c1ccc(-n2nc(-c3ccccc3O)nc2-c2ccccc2O)cc1 (stereo not drawn)
8.33e-05

---

Test system: Pichia kudriavzevii
protocol: Antifungal activity against Pichia kudriavzevii 4946 assessed as reduction in fungal growth incubated for 72 hrs by broth microdilution method
Format: functional
Kindly supply the reported MIC values for the records listed here.
Numbers only, in µg/mL.

[
  {
    "molecule": "OC(Cn1cncn1)(Cn1cncn1)c1ccc(F)cc1F",
    "MIC (µg/mL)": 16
  },
  {
    "molecule": "CN1CCOC(CNC(=O)c2ccc(-n3nc(-c4ccccc4O)nc3-c3ccccc3O)cc2)C1 (stereo not given)",
    "MIC (µg/mL)": 4
  },
  {
    "molecule": "O=C(O)c1ccc(-n2nc(-c3ccccc3O)nc2-c2ccccc2O)cc1",
    "MIC (µg/mL)": 2
  },
  {
    "molecule": "O=C(NCCC1CCOCC1)c1ccc(-n2nc(-c3ccccc3O)nc2-c2ccccc2O)cc1",
    "MIC (µg/mL)": 16
  }
]

The record that follows has no MIC shown yet.
// lookup MIC for O=C(NCCc1ccccn1)c1ccc(-n2nc(-c3ccccc3O)nc2-c2ccccc2O)cc1
4
